All values here come from patent US20250152704A1.

For each entry below, report its Kd value.
- SYSTEM UNDER TEST: T1, rat FcRn (rat, UniProt P13599 23-298; P07151 21-119, limits assumed)
- T1 sequence (looked up) 1: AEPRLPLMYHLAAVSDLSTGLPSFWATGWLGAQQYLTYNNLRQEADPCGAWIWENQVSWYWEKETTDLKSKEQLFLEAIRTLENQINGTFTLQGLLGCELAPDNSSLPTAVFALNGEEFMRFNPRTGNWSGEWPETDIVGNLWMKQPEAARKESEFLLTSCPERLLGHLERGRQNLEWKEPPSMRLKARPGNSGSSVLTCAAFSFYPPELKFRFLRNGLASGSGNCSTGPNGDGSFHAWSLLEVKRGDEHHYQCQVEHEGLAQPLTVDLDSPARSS
- T1 sequence (looked up) 2: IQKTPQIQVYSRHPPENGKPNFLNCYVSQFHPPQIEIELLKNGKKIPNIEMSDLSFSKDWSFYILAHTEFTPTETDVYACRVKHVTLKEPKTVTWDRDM
- EXPERIMENT DESCRIPTION: SPR, pH 6
Could you give me the number in nM? Just the number is fine.

[ask] Indicate its recorded Kd; the binder in question is Fc Fragment 2 (other, Human IgG1 Fc fragment; substitutions already in the entry; also called Fc195) DKTHTCPPCPAPELLGGPSVFLFPPKPKDTLYITREPEVTCVVVDVSHEDPEVKFNWYVDGVEVHNAKTKPREEQYNSTYRVVSVLTVLHQDWLNGKEYKCKVSNKALPAPIEKTISKAKGQPREPQVYTLPPSRDELTKNQVSLTCLVKGFYPSDIAVEWESNGQPENNYKTTPPVLDSDGSFFLYSKLTVDKSRWQQGNVFSCSVLHEALKFHYTQKSLSLSPG
[reply] 3.5

[ask] Specify Kd for Fc Fragment 13 (other, Human IgG1 Fc fragment; substitutions already in the entry) DKTHTCPPCPAPELLGGPSVFLFPPKPKDTLYITREPEVTCVVVDVSHEDPEVKFNWYVDGVEVHNAKTKPREEQYNSTYRVVSVLTVLHQDWLNGKEYKCKVSNKALPAPIEKTISKAKGQPREPQVYTLPPSRDELTKNQVSLTCLVKGFYPSDIAVEWESNGQPENNYKTTPPVLDSDGSFFLYSKLTVDKSRWQQGNVFSCSVMHEALRFHYTQKSLSLSPG and stop.
[reply] 4.33

[ask] Kindly indicate its recorded Kd. Item: Fc Fragment 1 (other, Human IgG1 Fc fragment (EU 221-446) with the named substitutions already in the entry; also called Efgartigimod (Efgart); Efgartigimod without the C-terminal lysine) DKTHTCPPCPAPELLGGPSVFLFPPKPKDTLYITREPEVTCVVVDVSHEDPEVKFNWYVDGVEVHNAKTKPREEQYNSTYRVVSVLTVLHQDWLNGKEYKCKVSNKALPAPIEKTISKAKGQPREPQVYTLPPSRDELTKNQVSLTCLVKGFYPSDIAVEWESNGQPENNYKTTPPVLDSDGSFFLYSKLTVDKSRWQQGNVFSCSVMHEALKFHYTQKSLSLSPG
[reply] 3.71
